# measurement.target: panel of 442 kinases (Homo sapiens, UniProt Q8IYT8)
# Construct: purchased Ambit Biosciences (scanMAXX KINOMEscan)
# Sequence (Q8IYT8 whole entry): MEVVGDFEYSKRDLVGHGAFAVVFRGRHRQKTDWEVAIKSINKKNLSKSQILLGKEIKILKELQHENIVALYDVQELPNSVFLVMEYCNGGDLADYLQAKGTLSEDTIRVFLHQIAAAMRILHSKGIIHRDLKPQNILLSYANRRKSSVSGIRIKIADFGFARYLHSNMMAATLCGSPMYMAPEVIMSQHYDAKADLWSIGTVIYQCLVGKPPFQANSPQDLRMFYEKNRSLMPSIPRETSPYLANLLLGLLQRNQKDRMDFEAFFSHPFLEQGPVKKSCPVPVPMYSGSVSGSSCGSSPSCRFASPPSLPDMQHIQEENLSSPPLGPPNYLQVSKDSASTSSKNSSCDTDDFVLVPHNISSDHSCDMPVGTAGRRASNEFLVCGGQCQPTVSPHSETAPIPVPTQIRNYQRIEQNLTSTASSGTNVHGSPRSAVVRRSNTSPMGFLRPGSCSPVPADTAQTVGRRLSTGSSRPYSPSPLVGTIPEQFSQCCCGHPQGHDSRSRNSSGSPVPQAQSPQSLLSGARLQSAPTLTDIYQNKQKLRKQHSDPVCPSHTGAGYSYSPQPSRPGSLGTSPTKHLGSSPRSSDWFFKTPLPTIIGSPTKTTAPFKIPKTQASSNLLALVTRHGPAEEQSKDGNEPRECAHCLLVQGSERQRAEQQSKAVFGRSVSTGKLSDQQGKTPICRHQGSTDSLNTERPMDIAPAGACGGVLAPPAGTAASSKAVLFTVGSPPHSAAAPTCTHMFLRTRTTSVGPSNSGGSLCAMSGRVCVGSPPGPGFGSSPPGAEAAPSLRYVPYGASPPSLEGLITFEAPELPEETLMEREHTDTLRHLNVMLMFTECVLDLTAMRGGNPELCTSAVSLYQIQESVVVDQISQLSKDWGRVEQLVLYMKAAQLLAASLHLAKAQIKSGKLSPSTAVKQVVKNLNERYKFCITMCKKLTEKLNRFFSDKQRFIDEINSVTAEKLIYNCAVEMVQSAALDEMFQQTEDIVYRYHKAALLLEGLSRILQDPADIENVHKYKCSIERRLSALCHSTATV
# experimental.details: biochemical
# Format: binding
# settings: kinase ULK2; 1 µM; read-out: ULK2 (% of control at 1 µM)
value.kind: remaining activity at 1 µM (%)
Report as a plain number; the unit % is understood.

Would you please look over these solved cases?
structure: Nc1cc(C(F)(F)F)c(-c2cc(N3CCOCC3)nc(N3CCOCC3)n2)cn1
measurement.target: panel of 442 kinases (Homo sapiens, UniProt Q8IYT8)
unit.tag: %
remaining activity at 1 µM: 86
--
structure: Cn1c(=O)n(-c2ccc(C(C)(C)C#N)cc2)c2c3cc(-c4cnc5ccccc5c4)ccc3ncc21
measurement.target: panel of 442 kinases (Homo sapiens, UniProt Q8IYT8)
unit.tag: %
remaining activity at 1 µM: 93
--
structure: COc1ncc(-c2ccc3nccc(-c4ccnnc4)c3c2)cc1NS(=O)(=O)c1ccc(F)cc1F
measurement.target: panel of 442 kinases (Homo sapiens, UniProt Q8IYT8)
unit.tag: %
remaining activity at 1 µM: 100

Next item in the queue.
Q: Identify measured remaining activity at 1 µM corresponding to FC(F)c1nc2ccccc2n1-c1nc(N2CCOCC2)nc(N2CCOCC2)n1
Result: 100
